Property: melting point; scope: individual compounds

Example cases with answers are listed next.
Compound	melting point
O=C1COc2ccc(C3=Nc4ccccc4SC3c3ccc(Cl)cc3)cc2N1 (stereo not given)	153 to 155 °C
O=CN1CCC2=C(CCCC2)C1Cc1ccc(O)cc1 (stereo not given)	154 to 156 °C
CN(C)C(=O)c1cc2ccc3c(c2cc1Cn1cncn1)C(C)(C)C(=O)O3	172 to 173 °C

Problem: Could you share which melting point value was measured for `CC(C)(C)C(=O)c1ccc(C(=O)N(C(=O)c2ccc(C(=O)C(C)(C)C)cc2)C(=O)c2ccccc2C(=O)C(C)(C)C)cc1` ?
Solution: 185 to 188 °C

Problem: # melting point lookup, item `CCCCc1cc(C=CC(=O)OC)c[nH]1`
Solution: 65 to 67 °C

Problem: I would be grateful if you could share the reported melting point for COC(=O)C1CC(C#N)(c2cccs2)CCC1=O (stereo not given) .
Solution: 76 to 78 °C

Problem: Can you look up the measured melting point of `Clc1nc2cccccc-2n1` for me?
Solution: 162 to 163 °C

Problem: Form field: reported melting point of C=CCc1c(Cl)cc2c(c1O)OC(COS(=O)(=O)c1ccc(C)cc1)C2 (stereo not given)
Solution: 128 to 131 °C

Problem: // returns reported melting point for input `C=CCOc1ccc(-c2cc(C(=O)NCc3ccc(OC(C)(C)C(=O)O)c(C)c3)nn2C)cc1`
Solution: 138 °C

Problem: Which melting point value is on record for `O=C(CN1CCC(Oc2ccccc2)CC1)Nc1ccc2[nH]c(=O)oc2c1` ?
Solution: 190 to 196 °C
